tgt: Aminopeptidase N (Rattus norvegicus)
Sequence (P15684 whole entry): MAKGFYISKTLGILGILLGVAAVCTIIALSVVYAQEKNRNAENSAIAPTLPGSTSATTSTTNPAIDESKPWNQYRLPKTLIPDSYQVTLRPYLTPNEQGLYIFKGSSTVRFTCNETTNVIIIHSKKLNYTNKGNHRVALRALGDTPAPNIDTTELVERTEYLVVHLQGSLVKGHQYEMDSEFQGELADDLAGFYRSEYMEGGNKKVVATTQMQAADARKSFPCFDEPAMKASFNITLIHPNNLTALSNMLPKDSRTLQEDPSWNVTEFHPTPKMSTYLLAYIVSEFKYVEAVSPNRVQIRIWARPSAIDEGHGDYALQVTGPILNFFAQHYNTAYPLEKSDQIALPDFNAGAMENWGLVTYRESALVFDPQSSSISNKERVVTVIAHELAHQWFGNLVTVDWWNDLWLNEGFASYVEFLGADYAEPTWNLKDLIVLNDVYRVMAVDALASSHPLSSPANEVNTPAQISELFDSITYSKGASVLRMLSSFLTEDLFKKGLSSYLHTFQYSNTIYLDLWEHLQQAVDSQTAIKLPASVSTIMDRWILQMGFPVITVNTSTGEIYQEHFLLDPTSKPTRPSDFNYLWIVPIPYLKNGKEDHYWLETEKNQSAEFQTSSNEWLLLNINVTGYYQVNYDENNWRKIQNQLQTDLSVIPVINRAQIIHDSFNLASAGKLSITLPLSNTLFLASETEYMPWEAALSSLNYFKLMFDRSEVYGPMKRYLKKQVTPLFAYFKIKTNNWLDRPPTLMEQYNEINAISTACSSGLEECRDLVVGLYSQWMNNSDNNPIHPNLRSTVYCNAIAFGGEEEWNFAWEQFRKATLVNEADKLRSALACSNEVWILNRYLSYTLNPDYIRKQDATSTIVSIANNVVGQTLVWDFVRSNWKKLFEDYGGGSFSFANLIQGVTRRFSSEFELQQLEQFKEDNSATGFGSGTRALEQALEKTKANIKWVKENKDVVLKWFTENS
experiment: Compound was evaluated for its inhibitory potency against purified membrane bound rat brain Aminopeptidase M using [3H]Leu-enkephalin as substrate
Recorded IC50 for the following compounds
Answers without a unit are incomplete; give the number and then its unit.

- structure: "COC(=O)[C@H](CC(C)C)NC(=O)[C@@H](O)[C@H](N)CCCCN"
  tgt: "Aminopeptidase N (Rattus norvegicus)"
  reported.property: "IC50"
  reported: "201 µM"

API: the following record is the query input.
Aminopeptidase N (Rattus norvegicus) data for CC(C)C[C@H](NC(=O)[C@@H](O)[C@H](N)Cc1ccccc1)C(=O)O ; its IC50: 19.4 µM

* * *

tgt: Aminopeptidase B (Rattus norvegicus, UniProt O09175)
Sequence (O09175 whole entry): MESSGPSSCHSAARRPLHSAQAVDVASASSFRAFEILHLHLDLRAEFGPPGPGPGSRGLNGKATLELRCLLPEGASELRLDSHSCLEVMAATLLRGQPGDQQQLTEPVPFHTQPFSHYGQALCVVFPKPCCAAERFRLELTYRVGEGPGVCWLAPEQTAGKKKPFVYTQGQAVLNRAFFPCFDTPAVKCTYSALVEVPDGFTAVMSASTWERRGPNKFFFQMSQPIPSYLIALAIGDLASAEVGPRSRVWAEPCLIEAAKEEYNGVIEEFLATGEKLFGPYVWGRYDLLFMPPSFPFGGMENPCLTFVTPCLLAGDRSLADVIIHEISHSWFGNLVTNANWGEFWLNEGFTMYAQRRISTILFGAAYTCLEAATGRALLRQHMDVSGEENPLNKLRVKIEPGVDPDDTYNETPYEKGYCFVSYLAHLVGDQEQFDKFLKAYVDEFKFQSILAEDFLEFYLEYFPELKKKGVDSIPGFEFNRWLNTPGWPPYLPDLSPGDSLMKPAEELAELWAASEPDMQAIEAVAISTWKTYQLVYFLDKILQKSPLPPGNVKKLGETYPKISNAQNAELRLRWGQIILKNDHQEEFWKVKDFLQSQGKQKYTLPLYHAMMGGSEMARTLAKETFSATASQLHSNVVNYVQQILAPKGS
experiment: Compound was evaluated for its inhibitory potency against purified membrane bound rat brain Aminopeptidase B using L-lysine-beta napthylamide as substrate
reported.property: pIC50
The value called pIC50 is obtained by taking minus log10 of the concentration in mol/L.

- structure: "CC(C)C[C@H](NC(=O)[C@@H](O)[C@H](N)Cc1ccccc1)C(=O)O"
  tgt: "Aminopeptidase B (Rattus norvegicus, UniProt O09175)"
  pIC50: 5.22

API: the following record is the query input.
Looking up COC(=O)[C@H](CC(C)C)NC(=O)[C@@H](O)[C@H](N)CCCCN , I found its pIC50 recorded as 3.32

Where these numbers come from: ChEMBL document CHEMBL1125394
